src = patent US20240116985A1

Each entry below carries its recorded pEC50.
Target: full-length beta-Catenin (Uniprot ID P35222) (Homo sapiens (Human)) (UniProt P35222)
Sequence (P35222 whole entry): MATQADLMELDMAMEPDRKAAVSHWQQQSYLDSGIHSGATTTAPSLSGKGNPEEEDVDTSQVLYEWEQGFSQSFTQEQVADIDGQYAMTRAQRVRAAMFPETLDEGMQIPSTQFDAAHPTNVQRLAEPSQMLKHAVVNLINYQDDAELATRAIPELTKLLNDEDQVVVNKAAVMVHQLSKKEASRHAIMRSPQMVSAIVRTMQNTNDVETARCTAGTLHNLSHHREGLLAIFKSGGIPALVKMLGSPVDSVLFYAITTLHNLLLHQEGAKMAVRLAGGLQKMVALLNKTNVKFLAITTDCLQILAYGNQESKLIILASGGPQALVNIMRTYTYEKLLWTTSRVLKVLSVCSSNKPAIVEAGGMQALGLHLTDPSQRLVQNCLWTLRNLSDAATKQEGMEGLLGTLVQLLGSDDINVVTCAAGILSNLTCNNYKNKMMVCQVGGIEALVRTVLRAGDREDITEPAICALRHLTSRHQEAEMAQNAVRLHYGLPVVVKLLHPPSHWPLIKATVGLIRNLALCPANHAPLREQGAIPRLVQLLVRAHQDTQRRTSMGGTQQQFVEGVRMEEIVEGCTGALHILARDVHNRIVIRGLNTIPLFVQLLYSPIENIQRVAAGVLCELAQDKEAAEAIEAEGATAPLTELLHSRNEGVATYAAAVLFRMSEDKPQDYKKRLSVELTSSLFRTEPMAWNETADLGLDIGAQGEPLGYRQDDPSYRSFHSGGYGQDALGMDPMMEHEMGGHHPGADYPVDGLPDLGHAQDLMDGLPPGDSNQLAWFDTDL
Experiment: FP competition: displacement of 5FAM-TCF4(10-53) from full-length beta-catenin
Starred links: 1 amine or outer side, 2 acyl side, 3 side chain; linkers in the order of their positions; H or OH if unused. Positions of bridges follow the written chain, without caps; N, C: chain ends. Non-standard residues stand in square brackets, D forms with d. Primed or numbered codes have the meaning given here. *: point of attachment. PyrS2″ = (S)-3-amino-1-((pent-4-en-1-yloxy)carbonyl)pyrrolidine-3-carboxylic acid (stapling residue), C=CCCCOC(=O)N1CC[C@@](N[*:1])(C(=O)[*:2])C1; B5(4) = 2,2-bis(4-pentenyl)glycine = 2-amino-2-(pent-4-en-1-yl)hept-6-enoic acid (stitching residue), C=CCCCC(CCCC=C)(N[*:1])C(=O)[*:2]; B5(5) = 2,2-bis(4-pentenyl)glycine, 2-amino-2-(pent-4-en-1-yl)hept-6-enoic acid (stitching residue), C=CCCCC(CCCC=C)(N[*:1])C(=O)[*:2]; TfeGA = (S)-2-amino-3-((carboxymethyl)(2,2,2-trifluoroethyl)amino)propanoic acid, O=C([C@H](CN(CC(=O)[*:3])CC(F)(F)F)N[*:1])[*:2]; mPEG2 = N-terminal 3-(2-methoxyethoxy)propanoic acid, COCCOCCC(=O)*; Phe(2-Cl) = N[C@@H](Cc1ccccc1Cl)C(=O)O; 2Nal = N[C@@H](Cc1ccc2ccccc2c1)C(=O)O; Bta = N[C@@H](Cc1csc2ccccc12)C(=O)O; αAllylPro = C=CC[C@@]1(C(=O)O)CCCN1; tBuAla = CC(C)(C)C[C@H](N)C(=O)O; 3Thi = N[C@@H](Cc1ccsc1)C(=O)O; S8 = C=CCCCCCC[C@](C)(N)C(=O)O; Thr(ol) = C[C@@H](O)[C@H](N)CO; Alaol = C[C@@H](CO)N*
On this scale, pEC50 is minus log10 of a concentration expressed in M (mol/L).

Report pEC50 for Ac-[αAllylPro]D[tBuAla][B5(5)]QDAAFL[PyrS2″][3Thi][Bta]Q-NH2 (staple 1-4, 4-11) [I-1211] please.
6.94

Continue with Ac-[αAllylPro]D[tBuAla][B5(4)]D[TfeGA]AAFT[PyrS2″][Phe(2-Cl)][Bta][Thr(ol)] (staple 1-4, 4-11) [I-1241]
7.72

Continue with Ac-[αAllylPro]Q[tBuAla][B5(5)]DDAAFL[PyrS2″][3Thi][Bta]Q-NH2 (staple 1-4, 4-11) [I-1225]
6.52

Continue with Ac-[αAllylPro]D[tBuAla][B5(5)]SDAAFN[PyrS2″][3Thi][Bta]Q-NH2 (staple 1-4, 4-11) [I-1208]
6.46

Continue with Ac-[αAllylPro]D[tBuAla][B5(5)]DDAAFT[PyrS2″][3Thi][2Nal]Q-NH2 (staple 1-4, 4-11) [I-1233]
7.62

Continue with Ac-[αAllylPro]N[tBuAla][B5(4)]DDAAFL[PyrS2″][3Thi][Bta]Q-NH2 (staple 1-4, 4-11) [I-1221]
7.85

Continue with Ac-[αAllylPro]D[tBuAla][B5(4)]DDAAFL[PyrS2″][Phe(2-Cl)][Bta]-Alaol (staple 1-4, 4-11) [I-1250]
7.51

Continue with mPEG2-[αAllylPro]D[tBuAla][B5(4)]DDAAFT[S8][Phe(2-Cl)][Bta]Q-NH2 (staple 1-4, 4-11) [I-1255]
7.49

Continue with Ac-[αAllylPro]D[tBuAla][B5(5)]SDAAFL[PyrS2″][3Thi][Bta]Q-NH2 (staple 1-4, 4-11) [I-1209]
6.32

Continue with Ac-[αAllylPro]S[tBuAla][B5(5)]DDAAFN[PyrS2″][3Thi][Bta]Q-NH2 (staple 1-4, 4-11) [I-1222]
6.29
